Attribution: patent US20230099293A1

TARGET_DESC: recombinant human Meningioma Expressed Antigen 5 (MGEA5), also referred to as O-GlcNAcase (OGA) (Homo sapiens)
Construct: Full length OGA enzyme was purchased at OriGene (cat #TP322411); purchased OriGene TP322411
Sequence (O60502 1-916): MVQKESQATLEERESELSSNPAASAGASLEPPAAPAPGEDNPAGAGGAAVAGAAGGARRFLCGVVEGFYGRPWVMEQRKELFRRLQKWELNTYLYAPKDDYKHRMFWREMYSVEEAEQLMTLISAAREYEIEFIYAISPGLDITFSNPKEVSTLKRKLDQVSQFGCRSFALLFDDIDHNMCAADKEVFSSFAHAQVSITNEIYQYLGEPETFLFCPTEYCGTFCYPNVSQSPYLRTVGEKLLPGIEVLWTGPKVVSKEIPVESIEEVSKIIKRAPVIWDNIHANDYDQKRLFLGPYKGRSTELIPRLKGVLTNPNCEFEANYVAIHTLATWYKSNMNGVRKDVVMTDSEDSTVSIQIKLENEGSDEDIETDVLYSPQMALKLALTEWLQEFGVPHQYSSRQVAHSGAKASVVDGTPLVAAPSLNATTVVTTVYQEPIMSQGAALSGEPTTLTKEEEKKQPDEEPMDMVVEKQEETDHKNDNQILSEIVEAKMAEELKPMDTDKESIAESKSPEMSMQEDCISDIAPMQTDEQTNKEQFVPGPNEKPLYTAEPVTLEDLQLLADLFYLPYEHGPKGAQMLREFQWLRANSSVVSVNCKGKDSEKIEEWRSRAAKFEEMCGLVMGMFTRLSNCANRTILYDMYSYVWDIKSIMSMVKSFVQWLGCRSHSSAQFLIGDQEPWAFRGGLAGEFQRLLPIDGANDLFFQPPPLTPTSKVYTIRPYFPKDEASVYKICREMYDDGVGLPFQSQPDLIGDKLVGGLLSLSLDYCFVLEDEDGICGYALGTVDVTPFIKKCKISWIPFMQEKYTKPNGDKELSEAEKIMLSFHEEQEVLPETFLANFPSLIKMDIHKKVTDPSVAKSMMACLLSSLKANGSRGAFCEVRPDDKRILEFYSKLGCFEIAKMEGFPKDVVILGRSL
PROTOCOL_DESCRIPTION: OGA biochemical assay (inhibition of FM-GlcNAc hydrolysis, fluorescence)
CONDITIONS: read-out: Enzymatic Emax (%)
READOUT_TYPE: Emax (%)
Express your answer in %, writing the number without its unit.

Consider the worked cases shown below.
INSERT INTO results (structure_string, obs_value) VALUES
  ('Cc1cc(C(F)(F)F)cc(C)c1Nc1nccc2c1ncn2CC(=O)N(C)C1CC1', 102),
  ('CN(C)C(=O)Cn1cnc2c(Nc3c(Cl)cc(F)cc3C(F)(F)F)nccc21', 96),
  ('Cc1cc(C(F)(F)F)cc(F)c1Nc1nccc2c1ncn2CC(=O)N(C)C', 96);

Would you kindly look at the next entry?
Inquiry: # Emax lookup, item Cc1cc(Cn2cnc3c(Nc4c(C)cc(C(F)(F)F)cc4C)nccc32)no1
Reply text: 104

###

TARGET_DESC: recombinant human Meningioma Expressed Antigen 5 (MGEA5), also referred to as O-GlcNAcase (OGA) (Homo sapiens)
Construct: Full length OGA enzyme was purchased at OriGene (cat #TP322411); purchased OriGene TP322411
PROTOCOL_DESCRIPTION: OGA biochemical assay (inhibition of FM-GlcNAc hydrolysis, fluorescence)
CONDITIONS: read-out: Enzymatic Emax (%)
Measured Emax values are reported for all entries that follow.
Only the number, expressed in %, is required.

INSERT INTO measurements (structure_string, obs_value) VALUES
  ('CN(C)C(=O)Cn1cnc2c(Nc3c(Cl)cc(C(F)(F)F)cc3Cl)nccc21', 99),
  ('Cc1c(-c2cccc(F)c2)nn(C)c1Nc1nccc2c1ncn2CC(=O)N(C)C', 102),
  ('Cc1cc(C(F)(F)F)cc(C)c1Nc1nccc2c1ncn2CCC(=O)N(C)C', 7);

Inquiry: Need Emax, item Cc1n[nH]c(C)c1Nc1nccc2c1ncn2CC(=O)N(C)C
Reply text: 90

Inquiry: For the compound shown here, Cc1cc(C#N)cc(C)c1Nc1nccc2c1ncn2CC(=O)N(C)C , give the reported Emax.
Reply text: 92

Inquiry: Using the record for Cc1cc(C(F)(F)F)cc(C(C)C)c1Nc1nccc2c1ncn2CC(=O)N(C)C , report its Emax.
Reply text: 101

Inquiry: Suppose we examine the compound Cc1cc(C(F)(F)F)cc(C)c1Nc1nccc2c1ncn2-c1ccc(F)cn1 ; what Emax value has been reported?
Reply text: 100

Inquiry: Which Emax reading was recorded for the compound Cc1ccnc(C(C)C)c1Nc1nccc2c1ncn2CC(C)(F)F ?
Reply text: 101

Inquiry: Requested field: Emax. Item: Cc1cc(F)cc(F)c1Nc1nccc2c1ncn2CC(=O)N(C)C
Reply text: 98

Inquiry: Would you kindly share the measured Emax for Cc1ccc(C(F)(F)F)c(C)c1Nc1nccc2c1ncn2CC(=O)N(C)C ?
Reply text: 99

Inquiry: What does the record list as Emax for Cc1cc(C(F)(F)F)cc(C)c1Nc1nccc2c1cnn2CC(=O)N(C)C ?
Reply text: 101
